Target: GRK5 (Homo sapiens, UniProt P34947)
Construct: Human GR K5 (residues 1- 590) w ild- type and D 311N mutant w ere expressed in E. co li Rosetta; His tag (inferred from nickel-NTA purification)
Sequence (P34947 whole entry, the tested form may be a part): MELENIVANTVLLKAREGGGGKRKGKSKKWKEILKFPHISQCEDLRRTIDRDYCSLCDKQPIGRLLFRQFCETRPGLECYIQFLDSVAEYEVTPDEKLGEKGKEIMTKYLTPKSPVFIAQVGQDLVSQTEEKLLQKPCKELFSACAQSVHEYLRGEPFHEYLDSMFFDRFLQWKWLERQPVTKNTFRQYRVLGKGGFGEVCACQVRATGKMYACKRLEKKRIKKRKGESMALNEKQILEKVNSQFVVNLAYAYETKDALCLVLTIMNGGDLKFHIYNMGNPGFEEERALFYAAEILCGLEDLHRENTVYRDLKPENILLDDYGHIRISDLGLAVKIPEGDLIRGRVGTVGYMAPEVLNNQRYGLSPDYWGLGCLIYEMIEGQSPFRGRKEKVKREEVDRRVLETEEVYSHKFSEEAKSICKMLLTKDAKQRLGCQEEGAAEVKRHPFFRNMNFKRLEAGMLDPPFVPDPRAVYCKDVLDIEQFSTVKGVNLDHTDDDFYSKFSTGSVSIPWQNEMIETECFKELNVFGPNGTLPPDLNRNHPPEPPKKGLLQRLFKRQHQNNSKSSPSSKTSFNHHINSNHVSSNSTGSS
Assay: GRK5 kinase inhibition assay, phosphorylation of tubulin ([γ-32P]-ATP)
Conditions: phosphorylation of the soluble substrate tubulin; ± standard deviation from 3 to 4 independent experiments
Lab note: cut-off is 90 nM. Strictly less in IC50 is true. Exactly 90 nM or more is false.

[[record]]
molecule = "Cc1[nH]c(/C=C2\\C(=O)Nc3ccc(C(=O)N[C@H](C)c4ccc(F)cc4)cc32)c(C)c1NC(=O)[C@@H]1CCC(=O)N1 [6a]"
class_name = "true"

[[record]]
molecule = "Cc1[nH]c(/C=C2\\C(=O)Nc3ccc(C(=O)N[C@H](C)c4ccc(F)cc4)cc32)c(C)c1NC(=O)[C@H]1CN(C(=O)OC(C)(C)C)CCN1 [6s]"
class_name = "true"

[[record]]
molecule = "Cc1[nH]c(/C=C2\\C(=O)Nc3ccc(C(=O)N[C@H](C)c4ccc(F)cc4)cc32)c(C)c1NC(=O)[C@H]1CCCN(C(=O)OC(C)(C)C)C1 [6o]"
class_name = "false"

[[record]]
molecule = "Cc1[nH]c(/C=C2\\C(=O)Nc3ccc(C(=O)N[C@H](C)c4ccc(F)cc4)cc32)c(C)c1NC(=O)[C@@H]1CCN(C(=O)OC(C)(C)C)C1 [6k]"
class_name = "false"

[[record]]
molecule = "Cc1[nH]c(C=C2C(=O)Nc3ccc(C(=O)NC(C)c4ccc(F)cc4)cc32)c(C)c1NC(=O)C1C=CCN1C(=O)OC(C)(C)C (stereo not shown) [6i]"
class_name = "false"

[[record]]
molecule = "Cc1[nH]c(/C=C2\\C(=O)Nc3ccc(C(=O)N[C@H](C)c4ccc(F)cc4)cc32)c(C)c1NC(=O)[C@H]1CCC(=O)N1 [6b]"
class_name = "false"

[[record]]
molecule = "Cc1[nH]c(/C=C2\\C(=O)Nc3ccc(C(=O)N[C@H](C)c4ccc(F)cc4)cc32)c(C)c1NC(=O)[C@@H]1CCCNC1 [6r]"
class_name = "true"

[[record]]
molecule = "Cc1[nH]c(/C=C2\\C(=O)Nc3ccc(C(=O)N[C@H](C)c4ccc(F)cc4)cc32)c(C)c1NC(=O)[C@@H]1C=CCN1 [6j]"
class_name = "true"

[[record]]
molecule = "Cc1[nH]c(/C=C2\\C(=O)Nc3ccc(C(=O)N[C@H](C)c4ccc(F)cc4)cc32)c(C)c1NC(=O)[C@H]1CCCCN1C(=O)OC(C)(C)C [6m]"
class_name = "false"

[[record]]
molecule = "Cc1[nH]c(/C=C2\\C(=O)Nc3ccc(C(=O)N[C@H](C)c4ccc(F)cc4)cc32)c(C)c1NC(=O)[C@H]1CNCCN1 [6u]"
class_name = "true"

[[record]]
molecule = "CC(=O)N1CCC[C@@H]1C(=O)Nc1c(C)[nH]c(/C=C2\\C(=O)Nc3ccc(C(=O)N[C@H](C)c4ccc(F)cc4)cc32)c1C [6e]"
class_name = "true"

[[record]]
molecule = "Cc1[nH]c(/C=C2\\C(=O)Nc3ccc(C(=O)N[C@H](C)c4ccc(F)cc4)cc32)c(C)c1NC(=O)[C@H]1CCN(C(=O)OC(C)(C)C)C1 [6l]"
class_name = "false"

